Where these numbers come from: patent EP4582426A1

# Test system: AsPC-1 (G12D)
# method.summary: In vitro cell proliferation inhibition test (CellTiter-Glo Luminescent Cell Viability Assay)
# Assay type: cell-based
# experimental.conditions: AsPC-1 cell line, Pancreas, KRAS (p.G12D); cells and compounds co-incubated 72 hours; listed as 12'
endpoint.label: IC50

In: What measured IC50 is associated with CCn1c(-c2cc(C#CC3CN(C)C3)cnc2C(C)OC)c2c3cc(ccc31)-c1csc(n1)CC(NC(=O)C1CC1C)C(=O)N1CCCC(N1)C(=O)OCC(C)(C)C2 (stereo not shown) [Example 12] on AsPC-1 (G12D)?
Out: 443 nM

---

# Test system: SW480 (G12V)
# method.summary: In vitro cell proliferation inhibition test (CellTiter-Glo Luminescent Cell Viability Assay)
# Type: cell-based
# experimental.conditions: SW480 cell line, Large intestine; Colon, KRAS (p.G12V); cells and compounds co-incubated 72 hours; listed as 12'
# Text: Due to the diversity of RAS mutations and in order to evaluate the activity of compounds in different RAS mutant cell lines, we selected KRAS^WT, KRAS^G12C, KRAS^G12D), KRAS^G12V and BRAF mutant cell lines (see the table below) for in vitro activity evaluation and screening of compounds . Experimental protocol: CellTiter-Glo® Cell Luminescent Viability Assay (Promega) […]
endpoint.label: IC50 (nM)
Give the value, in units of nM, as a plain number.

In: Which IC50 is reported for this compound? CCn1c(-c2cc(C#CC3CN(C)C3)cnc2C(C)OC)c2c3cc(ccc31)-c1csc(n1)CC(NC(=O)C1CC1C)C(=O)N1CCCC(N1)C(=O)OCC(C)(C)C2 (stereo not shown) [Example 12]
Out: 1790
